Numbers sourced from paper PMC2233693.

target.entity: E340N mutant bovine olfactory CNG channel (Bos taurus, UniProt Q03041, E340N)
method.summary: Blockage of macroscopic current by external Ca2+ or Mg2+, outside-out patches
Assay type: biochemical
test.parameters: external Ca2+, +80 mV, mean ± SD
quantity.kind: Ki (mM)

# compound, reported.measurement
records = [
    ("[Ca+2] [Ca^2+]", 29),
]

* * *

target.entity: E340G mutant bovine olfactory CNG channel (Bos taurus, UniProt Q03041, E340G)
method.summary: Blockage of macroscopic current by external Ca2+ or Mg2+, outside-out patches
Assay type: biochemical
test.parameters: external Mg2+, −80 mV, mean ± SD
pKi: −log10 of the molar value.
quantity.kind: pKi

# smiles.notation, target.entity, reported.measurement
measured = [
    ("[Mg+2]", "E340G mutant bovine olfactory CNG channel (Bos taurus, UniProt Q03041, E340G)", 2.96),
]

* * *

target.entity: wild-type bovine olfactory CNG channel (α3 subunit) (Bos taurus)
method.summary: Blockage of macroscopic current by external Ca2+ or Mg2+, outside-out patches
Assay type: biochemical
test.parameters: external Mg2+, −80 mV, mean ± SD

# smiles.notation, Ki
records = [
    ("[Mg+2]", "70 µM"),
]

* * *

target.entity: E340N mutant bovine olfactory CNG channel (Bos taurus, UniProt Q03041, E340N)
Sequence (Q03041 1-663 E340N): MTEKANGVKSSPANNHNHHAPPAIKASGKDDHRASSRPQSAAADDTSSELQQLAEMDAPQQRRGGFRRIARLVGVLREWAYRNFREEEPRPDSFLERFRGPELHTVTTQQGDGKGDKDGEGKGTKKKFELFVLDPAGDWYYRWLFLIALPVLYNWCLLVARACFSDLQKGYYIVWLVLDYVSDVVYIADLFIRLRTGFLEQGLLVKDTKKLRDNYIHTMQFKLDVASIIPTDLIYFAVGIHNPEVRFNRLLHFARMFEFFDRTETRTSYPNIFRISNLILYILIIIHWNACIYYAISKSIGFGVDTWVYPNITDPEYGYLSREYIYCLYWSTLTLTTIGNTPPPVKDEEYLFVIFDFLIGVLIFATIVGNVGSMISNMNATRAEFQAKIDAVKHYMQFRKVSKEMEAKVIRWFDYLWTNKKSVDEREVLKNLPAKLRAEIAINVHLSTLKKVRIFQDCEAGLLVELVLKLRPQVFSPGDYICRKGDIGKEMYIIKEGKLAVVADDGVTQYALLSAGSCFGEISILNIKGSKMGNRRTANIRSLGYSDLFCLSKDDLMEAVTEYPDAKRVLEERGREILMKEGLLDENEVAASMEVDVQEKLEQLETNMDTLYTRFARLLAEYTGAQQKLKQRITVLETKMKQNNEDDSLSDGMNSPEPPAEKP
Assay type: biochemical
test.parameters: read-out: K 1/2, cGMP, −80 mV
quantity.kind: EC50 (µM)

# smiles.notation, reported.measurement
data = [
    ("Nc1nc2c(ncn2[C@@H]2O[C@@H]3COP(=O)(O)O[C@H]3[C@H]2O)c(=O)[nH]1", 7.6),
]

* * *

target.entity: E340G mutant bovine olfactory CNG channel (Bos taurus, UniProt Q03041, E340G)
method.summary: Blockage of macroscopic current by external Ca2+ or Mg2+, outside-out patches
Format: biochemical
test.parameters: external Ca2+, +80 mV, mean ± SD
pKi: −log10 of the molar value.
quantity.kind: pKi

# smiles.notation, reported.measurement
rows = [
    ("[Ca+2]", 1.59),
]
